# target_of_assay: human NTCP (Homo sapiens, UniProt Q14973)
# Sequence (Q14973 whole entry): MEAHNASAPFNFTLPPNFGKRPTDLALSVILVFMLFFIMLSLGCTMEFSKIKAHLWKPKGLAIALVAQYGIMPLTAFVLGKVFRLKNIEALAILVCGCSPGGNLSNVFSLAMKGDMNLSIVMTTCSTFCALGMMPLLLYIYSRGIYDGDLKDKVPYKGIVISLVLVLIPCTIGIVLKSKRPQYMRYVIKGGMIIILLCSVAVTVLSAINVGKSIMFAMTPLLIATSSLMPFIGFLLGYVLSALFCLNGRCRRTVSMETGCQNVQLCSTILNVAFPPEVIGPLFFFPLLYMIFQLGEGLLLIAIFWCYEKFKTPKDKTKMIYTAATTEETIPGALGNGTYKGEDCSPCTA
# method: Screening taurocholate uptake assay (96-well, [14C]taurocholate, 10 µM drug)
# measurement_conditions: ranking score beside the functional and binding assay B-scores of the screen
Counter-ions that a name gives are not always drawn.
Ranking score overview
I'd appreciate a reply containing only the number, no unit.

# compound, measured_endpoint, recorded_number
records = [
    ("CNCCCN1c2ccccc2CCc2ccccc21 [Desipramine hydrochloride]", "Ranking score", 719.8),
    ("C=C(C)[C@@H]1[C@H]2OC(=O)[C@@H]1[C@]1(O)C[C@H]3O[C@]34C(=O)O[C@H]2[C@]14C [Picrotoxinin]", "Ranking score", 754.999),
    ("CN(C)CCC=C1c2ccccc2CCc2ccccc21.Cl [Amitryptiline hydrochloride]", "Ranking score", 769.935),
    ("NCc1ccc(S(N)(=O)=O)cc1 [Mafenide hydrochloride]", "Ranking score", 703.397),
    ("CCn1cc(C(=O)O)c(=O)c2cc3c(cc21)OCO3 [Oxolinic acid]", "Ranking score", 776.518),
    ("Cc1oncc1C(=O)Nc1ccc(C(F)(F)F)cc1 [Leflunomide]", "Ranking score", 727.533),
]

Lab note: next compound to report on.
# Ranking score lookup, item CCOC(=O)/C=C(C)/C=C/C=C(C)/C=C/c1c(C)cc(OC)c(C)c1C [Etretinate]
712.48

Reference source: paper PMC5681660
